This section presents compounds with their documented normalised viability values.
# Test system: DU-4475
# assay-protocol: normalised viability (% of control), CellTiter-Blue; higher = more viable cells (about 100 = DMSO control)
# details: incubation time: 72 h
measured-quantity: normalised viability (%)

O=C(/C=C/c1cccc(S(=O)(=O)Nc2ccccc2)c1)NO [Belinostat] (300 nM); 59.2
CN(C)c1nc(N(C)C)nc(N(C)C)n1 [Altretamine] (300 nM); 110
Cc1cc(Nc2cc(CN3CCOCC3)c3nc(C)c(Cc4ccc(Cl)cc4F)n3n2)n[nH]1 (300 nM); 104
C=C1C[C@@H]2[C@H](CC[C@]3(C)C(=O)CC[C@@H]23)[C@@]2(C)C=CC(=O)C=C12 [Exemestane] (300 nM); 81.7
COc1cc2/c(=N/c3ccc(Br)cc3F)nc[nH]c2cc1OCC1CCN(C)CC1 [Vandetanib] (300 nM); 101

* * *

# Tested on: HCC1143
# assay-protocol: normalised response (% of control), CellTiter-Glo; higher = more viable cells (100 = DMSO, 0 = benzethonium chloride kill control)
# details: incubation time: 72 h
normalised response of 80% or higher: y. Under 80%: n.

S=P(N1CC1)(N1CC1)N1CC1 [Thio-TEPA] (50000 nM); y
CCc1c2c(nc3ccc(OC(=O)N4CCC(N5CCCCC5)CC4)cc13)-c1cc3c(c(=O)n1C2)COC(=O)[C@]3(O)CC [Irinotecan] (10000 nM); n
CC(C)C[C@@H](C(=O)N[C@H](C(=O)OC1CCCC1)c1ccccc1)[C@H](O)C(=O)NO [Tosedostat] (10000 nM); n
Cc1[nH]c2ccccc2c1CCNCc1ccc(/C=C/C(=O)NO)cc1 [Panobinostat] (1000 nM); n
COc1cc2/c(=N/c3ccc(Br)cc3F)nc[nH]c2cc1OCC1CCN(C)CC1 [Vandetanib] (1000 nM); y
COc1cc(O)c2c(c1)/C=C/C[C@H](O)[C@H](O)C(=O)/C=C\C[C@H](C)OC2=O [(5Z)-7-Oxozeaenol] (10000 nM); n
Oc1ccc2c(c1)CC[C@H](c1ccccc1)[C@@H]2c1ccc(OCCN2CCCC2)cc1 [Lasofoxifene] (1000 nM); y

* * *

This section presents molecules with their documented normalised viability values.
# Tested on: CAL-120
# assay-protocol: normalised viability (% of control), CellTiter-Blue; higher = more viable cells (about 100 = DMSO control)
# details: 10000 nM; incubation time: 72 h
measured-quantity: normalised viability (%)

S=P(N1CC1)(N1CC1)N1CC1 [Thio-TEPA]; 86.8
COC(=O)c1ccc2c(c1)NC(=O)/C2=C(\Nc1ccc(N(C)C(=O)CN2CCN(C)CC2)cc1)c1ccccc1 [BIBF 1120]; 29.7
CC(C)C[C@@H](C(=O)N[C@H](C(=O)OC1CCCC1)c1ccccc1)[C@H](O)C(=O)NO [Tosedostat]; 55
Cc1ccc(NC(=O)c2ccc(CN3CCN(C)CC3)cc2)cc1Nc1nc(-c2cccnc2)cs1 [Masitinib]; 79.3
N#Cc1ccc(COC[C@H]2O[C@@H](n3c(NCc4ccc(Cl)c(Cl)c4)nc4c(N)ncnc43)[C@H](O)[C@@H]2O)cc1; 62.4
O=C(Nc1cccnc1)N1CCC(Cc2cccc(Oc3ccc(C(F)(F)F)cn3)c2)CC1 [PF-3845]; 120
